assay.details: Octanol-water partition coefficient (log D) of radiolabelled ligands
Format: physicochemical
condition.parameters: pH 7.4, 177Lu-natF-L; n-octanol/PBS pH 7.4; n = 6
endpoint.name: logD

compound: CC(C)(C)[Si](F)(c1ccc(C(=O)N[C@H](CNC(=O)CCC(C(=O)O)N2CCN(CC(=O)O)CCN(CC(=O)O)CCN(CC(=O)O)CC2)C(=O)N[C@H](CCCCNC(=O)CCC(=O)NCCC[C@@H](NC(=O)CC[C@H](NC(=O)N[C@@H](CCC(=O)O)C(=O)O)C(=O)O)C(=O)O)C(=O)O)cc1)C(C)(C)C (stereo partly shown)
endpoint.name: logD
value.measured: -3.75
